Cited source for all entries: patent US11041000B2

# MEASUREMENT PROTOCOL: Stability in simulated intestinal fluid (SIF)
# Assay type: in vitro ADME
# ASSAY CONTEXT: simulated intestinal fluid with pancreatin, pH 6.8, 37° C., matrix is 100 fold dilution of standard SIF concentration, read-out: SIF t½ (converted)

- COMPOUND: "CC(=O)NCCCC[C@@H]1NC(=O)[C@H](Cc2c[nH]c3c(C)cccc23)NC(=O)[C@H]([C@@H](C)O)NC(=O)[C@H](CC(N)=O)NC(=O)[C@@H](NC(C)=O)C(C)(C)SSC(C)(C)[C@@H](C(=O)N[C@@H](Cc2ccc(OCCN)cc2)C(=O)N[C@@H](Cc2ccc3ccccc3c2)C(=O)N[C@@](C)(CCCCN)C(=O)N[C@@H](CCCCNC(C)=O)C(=O)N[C@@H](CO)C(=O)N[C@H](CCCCN)C(N)=O)NC1=O [compound 352]"
  UNIT NAME: "h"
  half-life at 20 μM: 7
- COMPOUND: "CC(=O)NCCCC[C@@H]1NC(=O)[C@H](Cc2c[nH]c3c(C)cccc23)NC(=O)[C@H]([C@@H](C)O)NC(=O)[C@H](CC(N)=O)NC(=O)[C@@H](NC(C)=O)C(C)(C)SSC(C)(C)[C@@H](C(=O)N[C@@H](Cc2ccc(OCCN)cc2)C(=O)N[C@@H](Cc2ccc3ccccc3c2)C(=O)N[C@@](C)(CCCCN)C(=O)N[C@@H](CCCCNC(C)=O)C(=O)N[C@@H](CC(N)=O)C(=O)N[C@@H](CCCNC(N)=O)C(N)=O)NC1=O [compound 249]"
  UNIT NAME: "h"
  half-life at 20 μM: 3
